# tgt: HA of A/Victoria/3/75 (H3N2) virus (influenza A virus, UniProt P03435 17-567)
# Sequence (P03435 17-567 limits assumed): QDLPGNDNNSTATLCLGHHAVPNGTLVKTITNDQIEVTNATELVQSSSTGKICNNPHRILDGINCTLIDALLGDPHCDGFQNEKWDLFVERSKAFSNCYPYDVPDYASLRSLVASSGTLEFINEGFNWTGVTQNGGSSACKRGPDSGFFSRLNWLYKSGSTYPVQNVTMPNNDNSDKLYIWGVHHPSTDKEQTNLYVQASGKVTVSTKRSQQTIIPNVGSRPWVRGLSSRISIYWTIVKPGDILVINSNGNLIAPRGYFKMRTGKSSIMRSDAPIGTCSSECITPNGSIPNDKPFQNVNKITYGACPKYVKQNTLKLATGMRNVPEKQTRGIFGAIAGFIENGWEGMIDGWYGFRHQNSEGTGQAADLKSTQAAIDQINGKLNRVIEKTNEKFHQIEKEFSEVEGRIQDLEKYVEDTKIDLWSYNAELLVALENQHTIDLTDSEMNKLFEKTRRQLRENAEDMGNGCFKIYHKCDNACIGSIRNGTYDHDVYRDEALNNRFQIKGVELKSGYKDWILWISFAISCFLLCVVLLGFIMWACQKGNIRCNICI
# method summary: cell-based or functional assay
readout: Neutralization IC50, H3-Vic75 (µg/mL)
Express it in µg/mL; write the number only.

For orientation, consider the following solved cases.
| binder | Neutralization IC50, H3-Vic75 [µg/mL] |
| --- | --- |
| Antibody 11 (antibody, V domains shown) VH: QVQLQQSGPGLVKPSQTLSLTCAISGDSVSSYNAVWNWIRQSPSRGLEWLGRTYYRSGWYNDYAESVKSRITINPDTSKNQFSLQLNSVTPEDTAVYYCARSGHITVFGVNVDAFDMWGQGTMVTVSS VL: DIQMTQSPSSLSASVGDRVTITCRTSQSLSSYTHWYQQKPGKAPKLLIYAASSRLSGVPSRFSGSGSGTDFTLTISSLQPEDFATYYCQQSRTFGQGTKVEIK | 0.46 |
| Antibody 15 (antibody, V domains shown) VH: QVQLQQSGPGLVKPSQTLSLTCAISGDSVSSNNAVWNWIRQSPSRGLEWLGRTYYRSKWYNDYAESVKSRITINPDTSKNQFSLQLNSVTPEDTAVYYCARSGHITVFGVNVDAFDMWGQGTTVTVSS VL: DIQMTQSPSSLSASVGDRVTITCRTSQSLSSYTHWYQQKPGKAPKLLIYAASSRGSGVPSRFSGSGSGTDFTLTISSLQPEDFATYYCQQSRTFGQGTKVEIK | 0.35 |
| Antibody 13 (antibody, V domains shown) VH: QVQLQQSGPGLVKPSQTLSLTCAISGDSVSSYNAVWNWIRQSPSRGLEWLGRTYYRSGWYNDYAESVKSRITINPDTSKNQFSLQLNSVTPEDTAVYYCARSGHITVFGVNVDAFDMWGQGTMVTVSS VL: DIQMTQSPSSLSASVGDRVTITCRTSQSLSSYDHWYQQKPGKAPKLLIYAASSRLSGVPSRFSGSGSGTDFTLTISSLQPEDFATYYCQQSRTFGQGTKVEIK | 0.43 |

Now consider a different binder.
In plain terms, Antibody 14 (antibody, V domains shown) VH: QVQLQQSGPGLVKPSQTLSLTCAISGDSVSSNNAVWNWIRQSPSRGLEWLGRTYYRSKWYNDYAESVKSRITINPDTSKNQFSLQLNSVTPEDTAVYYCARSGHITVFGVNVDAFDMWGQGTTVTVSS VL: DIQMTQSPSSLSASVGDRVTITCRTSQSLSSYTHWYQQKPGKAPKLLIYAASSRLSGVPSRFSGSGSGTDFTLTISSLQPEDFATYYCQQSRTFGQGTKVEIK has a documented Neutralization IC50, H3-Vic75 of 0.44
